target-or-test-system: T1, HLA-A*6802 (human, UniProt P30375 25-308 (Gorilla gorilla entry), limits assumed)
T1 construct: purified HLA molecule; b2m and chain limits not described
T1 MHC heavy: not shown
test: competitive inhibition assay, purified HLA
Provide the reported IC50 of each item.
Answer with a number only, understood to be in nM.

Looking up VVLGVVFGI (native HER2/neu peptide) [Her2/neu.665] , I see its IC50 listed as 2000

Looking up HLYQGCQVV (native HER2/neu peptide) [Her2/neu.48] , I see its IC50 listed as 1140
